assay: Sorafenib and sorafenib N-oxide steady-state plasma concentrations, course 1; format: in vivo, human; settings: human, plasma, oral, 110 mg/m^2 twice daily
Counter-ions that a name gives are not always drawn.
Measurement type: concentration at 21 day (ng/mL)

{"columns": ["Compound", "Readout value"],
 "data": [
  ["CNC(=O)c1cc(Oc2ccc(NC(=O)Nc3ccc(Cl)c(C(F)(F)F)c3)cc2)ccn1 [sorafenib, Sorafenib tosylate]", 1600]
]}

###

assay: Sorafenib and sorafenib N-oxide steady-state plasma concentrations, course 1; type: in vivo, human; details: human, plasma, oral, 110 mg/m^2 twice daily
Counter-ions that a name gives are not always drawn.

{"columns": ["Compound", "concentration at 7 day"],
 "data": [
  ["CNC(=O)c1cc(Oc2ccc(NC(=O)Nc3ccc(Cl)c(C(F)(F)F)c3)cc2)ccn1 [sorafenib, Sorafenib tosylate]", "3000 ng/mL"]
]}

###

experiment: Sorafenib first-dose pharmacokinetics in patients; type: in vivo, human; conditions: human, plasma, po, 90 mg/m2
Where a name gives a salt, the structure may show the parent alone.

{"columns": ["Compound", "Cmax"],
 "data": [
  ["CNC(=O)c1cc(Oc2ccc(NC(=O)Nc3ccc(Cl)c(C(F)(F)F)c3)cc2)ccn1 [sorafenib, Sorafenib tosylate]", "1100 ng/mL"]
]}

###

assay: Sorafenib and sorafenib N-oxide steady-state plasma concentrations, course 1; type: in vivo, human; settings: human, plasma, oral, 90 mg/m^2 twice daily
Counter-ions that a name gives are not always drawn.

{"columns": ["Compound", "concentration at 21 day"],
 "data": [
  ["CNC(=O)c1cc(Oc2ccc(NC(=O)Nc3ccc(Cl)c(C(F)(F)F)c3)cc2)ccn1 [sorafenib, Sorafenib tosylate]", "4800 ng/mL"]
]}

###

experiment: Sorafenib and sorafenib N-oxide steady-state plasma concentrations, course 1; format: in vivo, human; conditions: human, plasma, oral, 90 mg/m^2 twice daily
Counter-ions that a name gives are not always drawn.
Measurement type: concentration at 7 day (ng/mL)

{"columns": ["Compound", "Measurement type", "U", "Readout value"],
 "data": [
  ["CNC(=O)c1cc(Oc2ccc(NC(=O)Nc3ccc(Cl)c(C(F)(F)F)c3)cc2)ccn1 [sorafenib, Sorafenib tosylate]", "concentration at 7 day", "ng/mL", 3500]
]}

###

assay: Sorafenib first-dose pharmacokinetics in patients; assay type: in vivo, human; conditions: human, plasma, po, 110 mg/m2
Counter-ions that a name gives are not always drawn.

{"columns": ["Molecule", "Cmax (ng/mL)"],
 "data": [
  ["CNC(=O)c1cc(Oc2ccc(NC(=O)Nc3ccc(Cl)c(C(F)(F)F)c3)cc2)ccn1 [sorafenib, Sorafenib tosylate]", 1600]
]}

###

assay: clinical; details: human, in vivo, po, 50 mg/m2

{"columns": ["Compound", "U", "AUC(0-inf)"],
 "data": [
  ["O=P1(N(CCCl)CCCl)NCCCO1 (stereo not shown) [cyclophosphamide, Cyclophosphamide]", "µM·h", 62.5]
]}

###

assay: Sorafenib and sorafenib N-oxide steady-state plasma concentrations, course 1; assay type: in vivo, human; conditions: human, plasma, oral, 90 mg/m^2 twice daily
Structures can show the parent of a compound that is named as a salt.

{"columns": ["Molecule", "concentration at 13 day [ng/mL]"],
 "data": [
  ["CNC(=O)c1cc(Oc2ccc(NC(=O)Nc3ccc(Cl)c(C(F)(F)F)c3)cc2)ccn1 [sorafenib, Sorafenib tosylate]", 2500]
]}
